Measured values drawn from paper PMC12860872 for this set.

Test: Extrapolated human dosimetry (OLINDA/EXM, ICRP-89 phantoms)
Details: ICRP 89 Adult Female, extrapolated
Absorbed dose (AD average) Brain values for the molecules below.
The number alone won't do; follow it with the unit.

Answered examples (3):
input: Name the reported Absorbed dose (AD average) Brain value associated with the molecule N#C[C@@H]1CC(F)(F)CN1C(=O)CNC(=O)c1ccnc2ccc(OCCCCNC(=O)CC[C@H](NC(=O)CN3CCN(CC(=O)[O-])CCN(CC(=O)[O-])CCN(CC(=O)[O-])CC3)C(=O)NCCCCOc3ccc4nccc(C(=O)NCC(=O)N5CC(F)(F)C[C@H]5C#N)c4c3)cc12.[177Lu+3] [[^177Lu]Lu-DO3A.Glu.(FAPI)2]
output: 2.63E-02 mGy/Mbq

input: Give the measured Absorbed dose (AD average) Brain of N#C[C@@H]1CC(F)(F)CN1C(=O)CNC(=O)c1ccnc2ccc(OCCCCNC(=O)CC[C@H](NC(=O)CCC(C(=O)O)N3CCN(CC(=O)[O-])CCN(CC(=O)[O-])CCN(CC(=O)[O-])CC3)C(=O)NCCCCOc3ccc4nccc(C(=O)NCC(=O)N5CC(F)(F)C[C@H]5C#N)c4c3)cc12.[177Lu+3] (stereo partly shown) [[^177Lu]Lu-DOTAGA.Glu.(FAPI)2] .
output: 2.94E-02 mGy/Mbq

input: Which Absorbed dose (AD average) Brain is reported for this molecule? N#C[C@@H]1CC(F)(F)CN1C(=O)CNC(=O)c1ccnc2ccc(OCCCCNC(=O)CC[C@H](NC(=O)CN3CCN(CC(=O)[O-])CCN(CC(=O)[O-])CCN(CC(=O)[O-])CC3)C(=O)NCCCCOc3ccc4nccc(C(=O)NCC(=O)N5CC(F)(F)C[C@H]5C#N)c4c3)cc12.[161Tb+3] [[^161Tb]Tb-DO3A.Glu.(FAPI)2]
output: 3.68E-02 mGy/Mbq

Read the next record carefully.
input: # query: Absorbed dose (AD average) Brain of entry N#C[C@@H]1CC(F)(F)CN1C(=O)CNC(=O)c1ccnc2ccc(OCCCCNC(=O)CC[C@H](NC(=O)CCC(C(=O)O)N3CCN(CC(=O)[O-])CCN(CC(=O)[O-])CCN(CC(=O)[O-])CC3)C(=O)NCCCCOc3ccc4nccc(C(=O)NCC(=O)N5CC(F)(F)C[C@H]5C#N)c4c3)cc12.[161Tb+3] (stereo partly shown) [[^161Tb]Tb-DOTAGA.Glu.(FAPI)2]
output: 4.11E-02 mGy/Mbq

====

Test: Extrapolated human dosimetry (OLINDA/EXM, ICRP-89 phantoms)
Details: ICRP 89 Adult Female, extrapolated
Measured Effective dose (average), listed per entry for reference.
API doc: respond with a numeric literal and nothing else, no unit.

input: Find the recorded Effective dose (average) belonging to N#C[C@@H]1CC(F)(F)CN1C(=O)CNC(=O)c1ccnc2ccc(OCCCCNC(=O)CC[C@H](NC(=O)CN3CCN(CC(=O)[O-])CCN(CC(=O)[O-])CCN(CC(=O)[O-])CC3)C(=O)NCCCCOc3ccc4nccc(C(=O)NCC(=O)N5CC(F)(F)C[C@H]5C#N)c4c3)cc12.[177Lu+3] [[^177Lu]Lu-DO3A.Glu.(FAPI)2] and report it.
output: 3.49E-02

Continuing:
input: Quick one: Effective dose (average) for N#C[C@@H]1CC(F)(F)CN1C(=O)CNC(=O)c1ccnc2ccc(OCCCCNC(=O)CC[C@H](NC(=O)CCC(C(=O)O)N3CCN(CC(=O)[O-])CCN(CC(=O)[O-])CCN(CC(=O)[O-])CC3)C(=O)NCCCCOc3ccc4nccc(C(=O)NCC(=O)N5CC(F)(F)C[C@H]5C#N)c4c3)cc12.[161Tb+3] (stereo partly shown) [[^161Tb]Tb-DOTAGA.Glu.(FAPI)2] ?
output: 5.28E-02

input: Any idea what its Effective dose (average) is? The compound is N#C[C@@H]1CC(F)(F)CN1C(=O)CNC(=O)c1ccnc2ccc(OCCCCNC(=O)CC[C@H](NC(=O)CN3CCN(CC(=O)[O-])CCN(CC(=O)[O-])CCN(CC(=O)[O-])CC3)C(=O)NCCCCOc3ccc4nccc(C(=O)NCC(=O)N5CC(F)(F)C[C@H]5C#N)c4c3)cc12.[161Tb+3] [[^161Tb]Tb-DO3A.Glu.(FAPI)2]
output: 4.10E-02

input: What measured Effective dose (average) goes with N#C[C@@H]1CC(F)(F)CN1C(=O)CNC(=O)c1ccnc2ccc(OCCCCNC(=O)CC[C@H](NC(=O)CCC(C(=O)O)N3CCN(CC(=O)[O-])CCN(CC(=O)[O-])CCN(CC(=O)[O-])CC3)C(=O)NCCCCOc3ccc4nccc(C(=O)NCC(=O)N5CC(F)(F)C[C@H]5C#N)c4c3)cc12.[177Lu+3] (stereo partly shown) [[^177Lu]Lu-DOTAGA.Glu.(FAPI)2] ?
output: 4.71E-02
